Entries and their activation at 0.1 µM values follow.
target_system: glucocerebrosidase (Gcase) (Homo sapiens, UniProt P04062)
Sequence (P04062 40-536): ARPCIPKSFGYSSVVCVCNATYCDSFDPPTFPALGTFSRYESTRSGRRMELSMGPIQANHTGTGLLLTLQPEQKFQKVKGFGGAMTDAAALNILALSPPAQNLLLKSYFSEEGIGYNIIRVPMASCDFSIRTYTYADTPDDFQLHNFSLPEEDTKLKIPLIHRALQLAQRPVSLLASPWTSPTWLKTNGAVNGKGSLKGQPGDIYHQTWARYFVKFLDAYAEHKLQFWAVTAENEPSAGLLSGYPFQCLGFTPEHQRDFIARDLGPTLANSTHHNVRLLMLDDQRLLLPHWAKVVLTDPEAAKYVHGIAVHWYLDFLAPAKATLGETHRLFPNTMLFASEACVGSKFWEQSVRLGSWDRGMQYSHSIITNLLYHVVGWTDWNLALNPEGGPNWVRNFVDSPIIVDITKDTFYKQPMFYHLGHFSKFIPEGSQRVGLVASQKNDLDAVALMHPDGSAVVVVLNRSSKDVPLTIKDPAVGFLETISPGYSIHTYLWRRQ
procedure_text: Glucocerebrosidase (Gcase) activation assay, 4-methylumbelliferyl-beta-D-glucopyranoside substrate, fluorescence
Type: biochemical
assay_conditions: 0.25 h, pH 4.7, test compound at 0.1 μM, 10 nM GCase, 100 nM saposin C, read-out: Percent Gcase Activation 0.1 μM Test Compound

Sample answers from the record:
compound: COc1cccc([C@H](C)NC(=O)c2ccn3c(C)cc(C)nc23)c1 [IV-33]
target_system: glucocerebrosidase (Gcase) (Homo sapiens, UniProt P04062)
activation at 0.1 µM: 10 to 20%

compound: CCC(NC(=O)c1ccn2c(C)cc(C)nc12)c1ccc2c(c1)OCCO2 (centres unmarked) [IV-62]
target_system: glucocerebrosidase (Gcase) (Homo sapiens, UniProt P04062)
activation at 0.1 µM: 10 to 20%

compound: Cc1cc(C)n2ccc(C(=O)NC(CO)c3cccc4ccccc34)c2n1 (centres unmarked) [IV-94]
target_system: glucocerebrosidase (Gcase) (Homo sapiens, UniProt P04062)
activation at 0.1 µM: < 10%

Ask: Report activation at 0.1 µM for Cc1cc(-c2ccc(F)cc2)n2ccc(C(=O)N[C@@H](C)C3CC3)c2n1 [III-31]
Reply: < 10%

Ask: Report activation at 0.1 µM for COc1ccccc1C(C)NC(=O)c1ccn2c(C)cc(C)nc12 (centres unmarked) [IV-60]
Reply: > 20%

Ask: Report activation at 0.1 µM for Cc1cc(C)n2ccc(C(=O)N[C@@H](C)c3cccc4c3CCCC4)c2n1 [IV-99]
Reply: > 20%

Ask: Report activation at 0.1 µM for Cc1cc(C(F)F)n2ccc(C(=O)N[C@@H](C)C3CC3)c2n1 [III-8]
Reply: > 20%

Ask: Report activation at 0.1 µM for Cc1cc(C)n2ccc(C(=O)NC(CO)c3ccc4ccccc4c3)c2n1 (centres unmarked) [IV-90]
Reply: < 10%
